Hey, just so you know, these numbers are from ChEMBL document CHEMBL1132555.

Listing of entries alongside the reported inhibition.
# System: Fibroblast growth factor receptor (Homo sapiens) (UniProt P22607+P11362+P22455+P21802)
# Sequence (P11362 whole entry, looked up): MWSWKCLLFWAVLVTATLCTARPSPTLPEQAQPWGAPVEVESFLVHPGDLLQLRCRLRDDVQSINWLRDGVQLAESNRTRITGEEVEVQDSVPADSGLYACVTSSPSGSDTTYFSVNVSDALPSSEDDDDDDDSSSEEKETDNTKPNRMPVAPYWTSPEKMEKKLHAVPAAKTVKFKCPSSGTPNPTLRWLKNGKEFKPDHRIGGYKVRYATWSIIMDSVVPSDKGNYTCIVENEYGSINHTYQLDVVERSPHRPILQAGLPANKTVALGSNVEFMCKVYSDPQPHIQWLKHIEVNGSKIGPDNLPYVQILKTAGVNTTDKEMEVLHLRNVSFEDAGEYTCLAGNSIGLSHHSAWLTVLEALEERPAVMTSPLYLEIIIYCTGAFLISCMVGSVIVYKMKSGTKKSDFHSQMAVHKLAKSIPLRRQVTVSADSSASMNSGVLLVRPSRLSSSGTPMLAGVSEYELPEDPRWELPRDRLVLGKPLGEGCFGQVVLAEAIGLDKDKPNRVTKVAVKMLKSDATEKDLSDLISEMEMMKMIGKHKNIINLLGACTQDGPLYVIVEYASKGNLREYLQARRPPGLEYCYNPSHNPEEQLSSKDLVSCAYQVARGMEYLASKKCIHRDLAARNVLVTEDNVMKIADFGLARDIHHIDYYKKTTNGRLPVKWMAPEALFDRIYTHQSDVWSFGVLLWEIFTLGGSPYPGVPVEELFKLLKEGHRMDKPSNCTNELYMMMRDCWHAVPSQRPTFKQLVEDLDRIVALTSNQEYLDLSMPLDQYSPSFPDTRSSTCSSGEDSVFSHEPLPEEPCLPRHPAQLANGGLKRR
# Sequence (P21802 whole entry, looked up): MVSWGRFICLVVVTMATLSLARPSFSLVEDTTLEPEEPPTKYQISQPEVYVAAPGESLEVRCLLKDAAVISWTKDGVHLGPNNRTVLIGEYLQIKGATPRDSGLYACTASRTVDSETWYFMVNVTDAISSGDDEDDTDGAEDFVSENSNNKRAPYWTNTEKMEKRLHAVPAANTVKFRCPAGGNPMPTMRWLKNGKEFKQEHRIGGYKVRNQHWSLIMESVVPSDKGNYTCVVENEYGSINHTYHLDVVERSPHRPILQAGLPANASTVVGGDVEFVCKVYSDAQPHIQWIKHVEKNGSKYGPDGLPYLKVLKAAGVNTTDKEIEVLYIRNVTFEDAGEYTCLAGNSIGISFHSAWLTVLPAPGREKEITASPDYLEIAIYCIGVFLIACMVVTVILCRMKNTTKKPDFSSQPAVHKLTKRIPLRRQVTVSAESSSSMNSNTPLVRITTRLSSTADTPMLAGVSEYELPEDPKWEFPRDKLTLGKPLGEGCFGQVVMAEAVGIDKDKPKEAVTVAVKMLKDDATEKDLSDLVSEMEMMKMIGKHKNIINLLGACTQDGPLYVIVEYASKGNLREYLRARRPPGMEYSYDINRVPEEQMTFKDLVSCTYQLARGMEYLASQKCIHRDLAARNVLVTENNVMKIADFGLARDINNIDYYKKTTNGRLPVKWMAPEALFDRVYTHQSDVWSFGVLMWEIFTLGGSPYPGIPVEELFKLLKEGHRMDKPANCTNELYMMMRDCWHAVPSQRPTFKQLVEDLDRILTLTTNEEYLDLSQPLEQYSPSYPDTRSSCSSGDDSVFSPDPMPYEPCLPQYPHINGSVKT
# Sequence (P22455 whole entry, looked up): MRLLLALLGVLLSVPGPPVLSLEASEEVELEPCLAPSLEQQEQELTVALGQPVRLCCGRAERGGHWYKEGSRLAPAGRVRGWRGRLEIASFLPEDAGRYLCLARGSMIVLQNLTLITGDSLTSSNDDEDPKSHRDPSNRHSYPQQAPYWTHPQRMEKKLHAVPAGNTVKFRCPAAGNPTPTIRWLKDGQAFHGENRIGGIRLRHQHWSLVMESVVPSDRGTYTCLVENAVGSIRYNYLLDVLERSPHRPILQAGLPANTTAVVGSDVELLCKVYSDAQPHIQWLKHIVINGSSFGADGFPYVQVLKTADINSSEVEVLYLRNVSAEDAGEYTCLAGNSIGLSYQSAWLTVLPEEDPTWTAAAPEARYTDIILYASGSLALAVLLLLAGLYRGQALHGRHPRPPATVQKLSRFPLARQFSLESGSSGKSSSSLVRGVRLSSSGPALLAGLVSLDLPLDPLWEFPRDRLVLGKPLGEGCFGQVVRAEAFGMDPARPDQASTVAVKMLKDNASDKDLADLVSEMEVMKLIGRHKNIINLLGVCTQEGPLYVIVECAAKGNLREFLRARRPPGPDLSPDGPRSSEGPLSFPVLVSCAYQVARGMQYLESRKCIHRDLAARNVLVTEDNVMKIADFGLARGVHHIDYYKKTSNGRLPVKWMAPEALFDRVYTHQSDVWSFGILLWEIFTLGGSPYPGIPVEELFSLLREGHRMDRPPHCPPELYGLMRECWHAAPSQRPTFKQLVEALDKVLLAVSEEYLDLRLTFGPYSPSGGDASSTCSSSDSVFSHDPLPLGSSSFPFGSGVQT
# Sequence (P22607 whole entry, looked up): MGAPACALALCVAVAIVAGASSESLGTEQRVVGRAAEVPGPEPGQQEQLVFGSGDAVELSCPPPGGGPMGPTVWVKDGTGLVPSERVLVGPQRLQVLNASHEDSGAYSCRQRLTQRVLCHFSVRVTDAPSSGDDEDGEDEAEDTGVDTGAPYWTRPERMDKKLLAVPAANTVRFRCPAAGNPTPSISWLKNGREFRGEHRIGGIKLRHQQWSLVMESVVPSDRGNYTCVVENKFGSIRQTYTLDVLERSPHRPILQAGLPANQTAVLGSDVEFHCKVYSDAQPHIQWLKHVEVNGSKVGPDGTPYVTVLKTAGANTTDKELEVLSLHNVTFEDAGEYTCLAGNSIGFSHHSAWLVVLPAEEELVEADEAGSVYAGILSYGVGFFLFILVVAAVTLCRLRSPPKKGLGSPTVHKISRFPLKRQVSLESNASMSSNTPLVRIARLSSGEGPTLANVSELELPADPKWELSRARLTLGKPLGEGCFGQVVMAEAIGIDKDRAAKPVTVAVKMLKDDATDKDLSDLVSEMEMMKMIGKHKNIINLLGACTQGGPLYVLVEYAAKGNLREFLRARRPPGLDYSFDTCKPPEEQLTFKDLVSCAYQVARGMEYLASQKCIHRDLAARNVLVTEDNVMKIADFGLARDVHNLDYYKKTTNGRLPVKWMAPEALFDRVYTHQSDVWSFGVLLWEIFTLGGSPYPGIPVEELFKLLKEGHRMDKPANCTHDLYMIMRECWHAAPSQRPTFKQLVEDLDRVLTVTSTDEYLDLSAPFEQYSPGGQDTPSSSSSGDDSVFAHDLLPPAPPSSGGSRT
# Assay procedure: Inhibition of Fibroblast growth factor receptor at 50 uM
# Assay type: protein assay
Give the value, in units of %, as a plain number.

Illustrative cases are given below, each with its answer.
COc1ccc2c(c1)sc1c(Nc3cccc(Br)c3)ncnc12    19
C[C@H](Nc1ncnc2c1sc1ccccc12)c1ccccc1    20
Brc1cccc(Nc2ncnc3c2sc2ccccc23)c1    21
Cc1cccc(Nc2ncnc3c2sc2ccc(N)cc23)c1    24
COc1ccc2[nH]c3ncnc(Nc4cccc(Br)c4)c3c2c1    30

Let me know recorded inhibition for c1ccc(CNc2ncnc3c2sc2ccccc23)cc1 , thanks.
11

Let me know recorded inhibition for Nc1ccc2sc3c(Nc4cccc(C(F)(F)F)c4)ncnc3c2c1 , thanks.
17

====

# System: Proto-oncogene tyrosine-protein kinase Src (Homo sapiens)
# Assay procedure: Inhibition of c-Src tyrosine kinase at 50 uM
Endpoint label: inhibition (%)
Give the value, in units of %, as a plain number.

Nc1ccc2sc3c(Nc4cccc(C(F)(F)F)c4)ncnc3c2c1    13
Cc1cccc(Nc2ncnc3c2sc2ccc(N)cc23)c1    47
COc1ccc2c(c1)sc1c(Nc3cccc(Br)c3)ncnc12    22
c1ccc(CNc2ncnc3c2sc2ccccc23)cc1    0
Brc1cccc(Nc2ncnc3c2sc2ccccc23)c1    0

The record that follows has no inhibition shown yet.
Let me know recorded inhibition for C[C@H](Nc1ncnc2c1sc1ccccc12)c1ccccc1 , thanks.
0

====

# System: Insulin receptor (Homo sapiens) (UniProt P06213)
# Sequence (P06213 28-758 limits assumed): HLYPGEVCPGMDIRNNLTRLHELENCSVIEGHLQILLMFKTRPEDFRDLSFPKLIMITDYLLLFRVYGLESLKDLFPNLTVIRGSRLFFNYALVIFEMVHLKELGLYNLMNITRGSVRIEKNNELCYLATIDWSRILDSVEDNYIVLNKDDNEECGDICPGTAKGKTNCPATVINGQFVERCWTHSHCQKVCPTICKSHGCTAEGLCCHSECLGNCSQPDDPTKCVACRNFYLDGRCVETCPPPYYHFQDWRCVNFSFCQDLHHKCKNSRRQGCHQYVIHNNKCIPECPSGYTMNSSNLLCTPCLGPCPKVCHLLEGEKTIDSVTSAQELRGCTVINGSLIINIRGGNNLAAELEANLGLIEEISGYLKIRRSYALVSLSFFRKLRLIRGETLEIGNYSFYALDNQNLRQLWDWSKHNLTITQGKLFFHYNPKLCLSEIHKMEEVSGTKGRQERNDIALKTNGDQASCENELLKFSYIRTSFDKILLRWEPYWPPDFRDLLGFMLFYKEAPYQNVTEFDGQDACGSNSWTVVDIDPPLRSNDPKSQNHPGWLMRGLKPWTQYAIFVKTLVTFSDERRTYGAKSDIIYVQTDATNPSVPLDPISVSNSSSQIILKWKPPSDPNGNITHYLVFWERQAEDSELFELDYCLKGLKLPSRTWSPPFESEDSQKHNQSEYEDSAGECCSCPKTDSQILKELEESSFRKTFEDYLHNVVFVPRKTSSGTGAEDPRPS
# Sequence (P06213 763-1382 limits assumed): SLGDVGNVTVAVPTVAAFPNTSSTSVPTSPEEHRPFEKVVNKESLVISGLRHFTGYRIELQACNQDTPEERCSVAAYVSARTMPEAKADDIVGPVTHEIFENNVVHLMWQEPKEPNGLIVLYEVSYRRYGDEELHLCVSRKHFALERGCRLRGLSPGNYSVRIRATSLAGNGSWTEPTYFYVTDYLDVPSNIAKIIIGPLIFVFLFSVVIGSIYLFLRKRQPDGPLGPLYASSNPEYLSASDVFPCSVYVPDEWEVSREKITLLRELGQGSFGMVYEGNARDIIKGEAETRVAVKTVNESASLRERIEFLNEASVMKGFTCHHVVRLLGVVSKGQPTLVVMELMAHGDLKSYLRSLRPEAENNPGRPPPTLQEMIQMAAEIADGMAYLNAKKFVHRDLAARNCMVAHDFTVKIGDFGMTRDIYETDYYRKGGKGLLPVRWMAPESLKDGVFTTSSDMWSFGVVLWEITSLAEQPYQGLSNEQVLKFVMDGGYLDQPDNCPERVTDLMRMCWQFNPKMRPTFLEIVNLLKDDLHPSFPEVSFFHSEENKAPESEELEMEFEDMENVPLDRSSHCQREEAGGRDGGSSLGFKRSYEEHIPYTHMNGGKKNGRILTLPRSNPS
# Assay procedure: Inhibition against Insulin receptor kinase at 50 uM
Endpoint label: inhibition (%)
Give the value, in units of %, as a plain number.

COc1ccc2[nH]c3ncnc(Nc4cccc(Br)c4)c3c2c1    0
C[C@H](Nc1ncnc2c1sc1ccccc12)c1ccccc1    13
Nc1ccc2sc3c(Nc4cccc(Br)c4)ncnc3c2c1    0

Let me know recorded inhibition for Nc1ccc2sc3c(Nc4cccc(C(F)(F)F)c4)ncnc3c2c1 , thanks.
0

Let me know recorded inhibition for Brc1cccc(Nc2ncnc3c2sc2ccccc23)c1 , thanks.
0

Let me know recorded inhibition for Cc1cccc(Nc2ncnc3c2sc2ccc(N)cc23)c1 , thanks.
14

Let me know recorded inhibition for c1ccc(CNc2ncnc3c2sc2ccccc23)cc1 , thanks.
0

Let me know recorded inhibition for COc1ccc2c(c1)sc1c(Nc3cccc(Br)c3)ncnc12 , thanks.
0

====

Reported values: IC50 for Epidermal growth factor receptor (Homo sapiens, UniProt P00533), one per item.

Cc1nc(Nc2cccc(Br)c2)c2c(n1)[nH]c1ccccc12    > 10 µM
CN(C)CCNc1[nH]cnc2nc3ccccc3c1-2    > 10 µM
C[C@@H](Nc1[nH]cnc2c3ccccc3nc1-2)c1ccccc1    > 100 µM
Clc1cccc(Nc2ncnc3c2sc2ncccc23)c1    > 1 µM

Let me know recorded IC50 for CN(C)CCNc1[nH]cnc2c3ccccc3nc1-2 , thanks.
> 100 µM

Let me know recorded IC50 for c1ccc2c(c1)[nH]c1c(NC3CCCCC3)ncnc12 , thanks.
> 100 µM
